Tested On: T1, β-catenin (UniProt P35222 134-665, limits assumed, biotinylated in the SPR and plate assays)
T1 sequence (looked up): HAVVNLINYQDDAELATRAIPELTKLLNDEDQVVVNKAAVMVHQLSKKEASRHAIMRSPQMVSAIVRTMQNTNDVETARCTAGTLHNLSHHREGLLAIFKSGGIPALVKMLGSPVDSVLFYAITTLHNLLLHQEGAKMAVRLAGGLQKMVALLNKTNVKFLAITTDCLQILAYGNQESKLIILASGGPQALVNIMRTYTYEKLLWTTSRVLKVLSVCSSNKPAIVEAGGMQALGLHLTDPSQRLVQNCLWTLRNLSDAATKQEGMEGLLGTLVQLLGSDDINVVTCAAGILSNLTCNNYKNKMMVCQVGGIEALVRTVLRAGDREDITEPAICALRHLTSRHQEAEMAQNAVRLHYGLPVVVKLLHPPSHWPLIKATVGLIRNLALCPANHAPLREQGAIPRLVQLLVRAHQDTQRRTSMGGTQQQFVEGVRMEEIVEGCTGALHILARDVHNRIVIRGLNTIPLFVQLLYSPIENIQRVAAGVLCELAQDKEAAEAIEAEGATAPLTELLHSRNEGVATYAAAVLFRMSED
Procedure Text: cell-based or functional assay
Bridges are numbered along the chain shown (N, C = ends). Primed or numbered codes have the meaning given here. Where no end group is shown, it is not given here. [ ]: non-standard residue; d: D form. Chg = N[C@H](C(=O)O)C1CCCCC1; NMeA = CN[C@@H](C)C(=O)O; Bz′ = not defined here; Sar = CNCC(=O)O
Catalogue of Wnt Reporter EC50 values
Measured Parameter: Wnt Reporter EC50

Binder	Measured Parameter	Recorded Value
W[NMeA]QKILDDH[Chg]QRVWG-NH2 (lactam 4-8; not fully specified (N-terminus); printed as H17C8C(O)NH-W-NMeA-QK*ILDD*H-Chg-QRVWG-NH2) [SEQ ID NO: 431]	Wnt Reporter EC50	≤ 7.5 µM
H-AWFLISFWG-OH [SEQ ID NO: 209]	Wnt Reporter EC50	≤ 7.5 µM
H-MWFLICFW[Sar]-OH [SEQ ID NO: 213]	Wnt Reporter EC50	≤ 7.5 µM
KLWALIXAWD (HELM PEPTIDE1{[ac].K.[Nle].W.[Cha].L.I.[Abu].A.W.D}$PEPTIDE1,PEPTIDE1,2:R3-11:R3$$$V2.0; SMILES CCCC[C@@H]1NC(=O)[C@@H](NC(C)=O)CCCCNC(=O)C[C@@H](C(=O)O)NC(=O)[C@H](Cc2c[nH]c3ccccc23)NC(=O)[C@H](C)NC(=O)[C@H](CC)NC(=O)[C@H]([C@@H](C)CC)NC(=O)[C@H](CC(C)C)NC(=O)[C@H](CC2CCCCC2)NC(=O)[C@H](Cc2c[nH]c3ccccc23)NC1=O, also called Cyclo-acetyl-K*Nle-W-3-cyclohexyl-L-alanine-LI-(amino butyric acid-AWD*-COOH)) [Peptide 2 (SEQ ID NO: 215)]	Wnt Reporter EC50	> 30 µM
KSRMWYLISFW (HELM PEPTIDE1{K.S.R.M.W.Y.L.I.S.F.W}$PEPTIDE1,PEPTIDE1,1:R3-11:R2$$$V2.0; SMILES CC[C@H](C)[C@@H]1NC(=O)[C@H](CC(C)C)NC(=O)[C@H](Cc2ccc(O)cc2)NC(=O)[C@H](Cc2c[nH]c3ccccc23)NC(=O)[C@H](CCSC)NC(=O)[C@H](CCCNC(=N)N)NC(=O)[C@H](CO)NC(=O)[C@@H](N)CCCCNC(=O)[C@H](Cc2c[nH]c3ccccc23)NC(=O)[C@H](Cc2ccccc2)NC(=O)[C@H](CO)NC1=O) [SEQ ID NO: 32]	Wnt Reporter EC50	> 30 µM
{Bz′}-MWILISFWG-OH [SEQ ID NO: 223]	Wnt Reporter EC50	≤ 7.5 µM
KSRMWFLISFW-NH2 [SEQ ID NO: 83]	Wnt Reporter EC50	> 30 µM
MSRRWFLISFW-NH2 [SEQ ID NO: 75]	Wnt Reporter EC50	> 30 µM
